MIC (μM) MHB values for the substances below.
Tested on: planktonic methicillin resistant S. aureus
PROTOCOL_NOTES: microbe, parasite or virus in culture
Type: cell-based, Staphylococcus aureus
CONDITION_DETAILS: planktonic methicillin resistant
No end group written: not given here.
Answer format: numeric, µM implied, no suffix.

* RRQWRGWVRIWL-NH2 [Peptide 3005, RRQWRGWVRIWL] | 4

Reported MIC (μM) MHB, substance VIKWLLKILRAI-NH2 [Peptide 3001, VIKWLLKILRAI] : ____
1

Can you handle KKWQLLIKWKLR-NH2 [Peptide 3008, KKWQLLIKWKLR] next?
2

Can you handle WKKVQWLKRLLL-NH2 [Peptide 3003, WKKVQWLKRLLL] next?
4

Can you handle LWQLWLKLKLKG-NH2 [Peptide 3013, LWQLWLKLKLKG] next?
32

Can you handle WVGVIIKWGLKL-NH2 [Peptide 3018, WVGVIIKWGLKL] next?
2

====

% Residual MRSA biofilm growth compared to untreated control values for the substances below.
System: S. aureus (MRSA SAP0017)
Format: cell-based, Staphylococcus aureus
CONDITION_DETAILS: SPOT synthesized peptide, ~12.5 μM, clinical MRSA strain, crystal violet assay
Non-standard residues stand in square brackets, D forms with d. No end group written: not given here. hArg = N=C(N)NCCCC[C@H](N)C(=O)O; Orn = NCCC[C@H](N)C(=O)O
Output should be the measured figure followed by the unit it is expressed in.

- IVKWIAQWKLVG (IVKWIAQWKLVG-NH2) [Imax-10]: 100%
- VRLIVAVRIWRHar (VRLIVAVRIWR[hArg]-NH2; N-terminus assumed; SMILES CC[C@H](C)[C@H](NC(=O)[C@H](CCCNC(=N)N)NC(=O)[C@@H](NC(=O)[C@H](C)NC(=O)[C@@H](NC(=O)[C@@H](NC(=O)[C@H](CC(C)C)NC(=O)[C@H](CCCNC(=N)N)NC(=O)[C@@H](N)C(C)C)[C@@H](C)CC)C(C)C)C(C)C)C(=O)N[C@@H](Cc1c[nH]c2ccccc12)C(=O)N[C@@H](CCCNC(=N)N)C(=O)N[C@@H](CCCCNC(=N)N)C(N)=O) [Peptide 1018-r36]: 27%
- OrnRLIVAVRIWRR ([Orn]RLIVAVRIWRR-NH2; N-terminus assumed; SMILES CC[C@H](C)[C@H](NC(=O)[C@H](CCCNC(=N)N)NC(=O)[C@@H](NC(=O)[C@H](C)NC(=O)[C@@H](NC(=O)[C@@H](NC(=O)[C@H](CC(C)C)NC(=O)[C@H](CCCNC(=N)N)NC(=O)[C@@H](N)CCCN)[C@@H](C)CC)C(C)C)C(C)C)C(=O)N[C@@H](Cc1c[nH]c2ccccc12)C(=O)N[C@@H](CCCNC(=N)N)C(=O)N[C@@H](CCCNC(=N)N)C(N)=O) [Peptide 1018-k25]: 44%
- HarRLIVAVRIWRR ([hArg]RLIVAVRIWRR-NH2; N-terminus assumed; SMILES CC[C@H](C)[C@H](NC(=O)[C@H](CCCNC(=N)N)NC(=O)[C@@H](NC(=O)[C@H](C)NC(=O)[C@@H](NC(=O)[C@@H](NC(=O)[C@H](CC(C)C)NC(=O)[C@H](CCCNC(=N)N)NC(=O)[C@@H](N)CCCCNC(=N)N)[C@@H](C)CC)C(C)C)C(C)C)C(=O)N[C@@H](Cc1c[nH]c2ccccc12)C(=O)N[C@@H](CCCNC(=N)N)C(=O)N[C@@H](CCCNC(=N)N)C(N)=O) [Peptide 1018-r25]: 64%
- VRLIVAVRIWOrnR (VRLIVAVRIW[Orn]R-NH2; N-terminus assumed; SMILES CC[C@H](C)[C@H](NC(=O)[C@H](CCCNC(=N)N)NC(=O)[C@@H](NC(=O)[C@H](C)NC(=O)[C@@H](NC(=O)[C@@H](NC(=O)[C@H](CC(C)C)NC(=O)[C@H](CCCNC(=N)N)NC(=O)[C@@H](N)C(C)C)[C@@H](C)CC)C(C)C)C(C)C)C(=O)N[C@@H](Cc1c[nH]c2ccccc12)C(=O)N[C@@H](CCCN)C(=O)N[C@@H](CCCNC(=N)N)C(N)=O) [Peptide 1018-k35]: 34%

GET /values?readout=% Residual MRSA biofilm growth compared to untreated control&system=S. aureus (MRSA SAP0017)&item= VOrnLIVAVRIWRR (V[Orn]LIVAVRIWRR-NH2; N-terminus assumed; SMILES CC[C@H](C)[C@H](NC(=O)[C@H](CCCNC(=N)N)NC(=O)[C@@H](NC(=O)[C@H](C)NC(=O)[C@@H](NC(=O)[C@@H](NC(=O)[C@H](CC(C)C)NC(=O)[C@H](CCCN)NC(=O)[C@@H](N)C(C)C)[C@@H](C)CC)C(C)C)C(C)C)C(=O)N[C@@H](Cc1c[nH]c2ccccc12)C(=O)N[C@@H](CCCNC(=N)N)C(=O)N[C@@H](CCCNC(=N)N)C(N)=O) [Peptide 1018-k26]
63%
